I'd be grateful if you could share measured PI intensity for these entries.
Test system: prototrophic yeast strain (CEN.PK113-7D)
Test: Propidium iodide fluorescence-based CLS method in yeast (incl. high-throughput screening);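 note: untreated reference is eight DMSO and water control wells per plate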
Type: cell-based, Saccharomyces cerevisiae
Conditions: concentration tested 100 μM; solvent DMSO or water; chronological age point Day 7 (72 h growth = Day 1); lower = more survival

Requested read-out: PI intensity. Entry: CO[C@H]1/C=C/O[C@@]2(C)Oc3c(C)c([O-])c4c(O)c(cc(O)c4c3C2=O)NC(=O)/C(C)=C\C=C\[C@H](C)[C@H](O)[C@@H](C)[C@@H](O)[C@@H](C)[C@H](OC(C)=O)[C@@H]1C.[Na+] [Rifamycin (sodium), reference compound] 39,446.0

Requested read-out: PI intensity. Entry: Cn1cc(C[C@H](N)C(=O)O)c2ccccc21 [(S)-Indoximod] 78,648.2

Requested read-out: PI intensity. Entry: O=C(O)c1ccc(O)cc1O [2,4-Dihydroxybenzoic acid] 76,326.3
